Recorded MIC for the following molecules
System: Escherichia coli
assayName: Antibacterial activity against Escherichia coli ATCC 3509 after 24 hrs
Type: functional
runConditions: ATCC 3509, 24 h
Kindly answer with a numeric value in µg/mL, unit omitted.

{"molecule": "O=C1C=CC[C@@H](c2cccs2)O1", "MIC, µg/mL": 30}
{"molecule": "CC1=CCC(c2cccs2)OC1=O (racemic)", "MIC, µg/mL": 12}
{"molecule": "CC1=C[C@@H](c2cccs2)OC1=O", "MIC, µg/mL": 25}
{"molecule": "CC1=CC[C@@H](c2cccs2)OC1=O", "MIC, µg/mL": 25}
{"molecule": "O=C1C=CCC(c2cccs2)O1 (racemic)", "MIC, µg/mL": 20}
{"molecule": "CC1=CC[C@H](c2cccs2)OC1=O", "MIC, µg/mL": 25}

Now take the following molecule into account.
Consider the molecule O=C1C=CC[C@H](c2cccs2)O1 and give its recorded MIC.
50

* * *

System: Staphylococcus aureus
assayName: Antibacterial activity against Staphylococcus aureus ATCC 6538 after 24 hrs
Assay type: functional
runConditions: ATCC 6538, 24 h
measuredAttribute: MIC
Field: value (include unit after the number)

Example compounds with recorded MIC:
{"compound": "O=C1C=CC[C@@H](c2cccs2)O1", "result": "50 µg/mL"}
{"compound": "O=C1C=CC[C@H](c2cccs2)O1", "result": "40 µg/mL"}
{"compound": "O=C1C=CCC(c2cccs2)O1 (racemic)", "result": "30 µg/mL"}
{"compound": "CC1=CC[C@@H](c2cccs2)OC1=O", "result": "25 µg/mL"}
{"compound": "CC1=CC[C@H](c2cccs2)OC1=O", "result": "25 µg/mL"}

Consider the compound CC1=CCC(c2cccs2)OC1=O (racemic) and give its recorded MIC.
25 µg/mL

* * *

Tested on: Pseudomonas aeruginosa
assayName: Antibacterial activity against Pseudomonas aeruginosa ATCC 9027 after 24 hrs
Type: functional, organism-based
Activity calls are given as the source filed them. The calls are words filed in the database; no cut-off is given here.
measuredAttribute: MIC

Example molecules with recorded MIC:
{"molecule": "O=C1C=C[C@@H](c2cccs2)O1", "measuredAttribute": "MIC", "result": "inactive"}
{"molecule": "CC1=CC(c2cccs2)OC1=O (racemic)", "measuredAttribute": "MIC", "result": "inactive"}
{"molecule": "CC1=CCC(c2cccs2)OC1=O (racemic)", "measuredAttribute": "MIC", "result": "inactive"}
{"molecule": "O=C1C=CC[C@@H](c2ccco2)O1", "measuredAttribute": "MIC", "result": "inactive"}
{"molecule": "CC1=C[C@@H](c2cccs2)OC1=O", "measuredAttribute": "MIC", "result": "inactive"}

Report the value of MIC obtained on Pseudomonas aeruginosa for O=C1C=CC[C@H](c2cccs2)O1 .
inactive

Report the value of MIC obtained on Pseudomonas aeruginosa for CC1=CC[C@@H](c2cccs2)OC1=O .
inactive

Report the value of MIC obtained on Pseudomonas aeruginosa for O=C1C=CC[C@@H](c2cccs2)O1 .
inactive

Report the value of MIC obtained on Pseudomonas aeruginosa for CC1=CC[C@H](c2cccs2)OC1=O .
inactive

Report the value of MIC obtained on Pseudomonas aeruginosa for O=C1C=CCC(c2ccco2)O1 (racemic) .
inactive

Report the value of MIC obtained on Pseudomonas aeruginosa for O=C1C=CC[C@H](c2ccco2)O1 .
inactive

Report the value of MIC obtained on Pseudomonas aeruginosa for O=C1C=CC(c2cccs2)O1 (racemic) .
inactive

Report the value of MIC obtained on Pseudomonas aeruginosa for O=C1C=CCC(c2cccs2)O1 (racemic) .
inactive
